List of pIC50 values.
Measured On: Bromodomain-containing protein 3 (Homo sapiens, UniProt Q15059)
Sequence (Q15059 whole entry): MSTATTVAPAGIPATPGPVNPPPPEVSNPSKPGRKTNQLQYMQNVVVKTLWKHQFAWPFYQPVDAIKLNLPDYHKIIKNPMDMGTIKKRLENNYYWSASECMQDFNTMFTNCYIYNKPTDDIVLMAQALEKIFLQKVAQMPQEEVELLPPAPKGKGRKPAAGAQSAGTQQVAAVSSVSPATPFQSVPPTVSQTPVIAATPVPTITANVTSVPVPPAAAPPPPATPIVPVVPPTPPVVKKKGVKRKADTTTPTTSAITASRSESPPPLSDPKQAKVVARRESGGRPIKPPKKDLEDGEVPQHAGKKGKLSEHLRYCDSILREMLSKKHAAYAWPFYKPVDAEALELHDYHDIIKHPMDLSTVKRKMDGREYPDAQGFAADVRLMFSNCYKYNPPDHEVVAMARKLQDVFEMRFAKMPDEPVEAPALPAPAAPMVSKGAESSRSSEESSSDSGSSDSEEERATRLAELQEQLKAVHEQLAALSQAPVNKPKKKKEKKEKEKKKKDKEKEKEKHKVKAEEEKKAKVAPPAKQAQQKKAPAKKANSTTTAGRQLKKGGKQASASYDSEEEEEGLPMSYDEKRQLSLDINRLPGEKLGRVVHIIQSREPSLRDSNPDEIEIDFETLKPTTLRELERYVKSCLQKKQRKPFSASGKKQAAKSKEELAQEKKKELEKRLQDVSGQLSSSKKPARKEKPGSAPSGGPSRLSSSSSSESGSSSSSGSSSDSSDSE
Procedure Details: Inhibition of BRD3 (D1) (unknown origin) incubated for 30 mins using histone H4 peptide (1-21) K5/8/12/16Ac-biotin by alpha screen assay
Keep it numeric: pIC50 is minus log10 of the concentration in mol/L.

// solved cases for pIC50 follow
{"Substance Smiles": "COc1ccc(-c2c(C)n[nH]c2C)cc1S(=O)(=O)NC1CCCC1", "Measured On": "Bromodomain-containing protein 3 (Homo sapiens, UniProt Q15059)", "pIC50": 5.88}
{"Substance Smiles": "COc1ccc(-c2c(C)noc2C)cc1S(=O)(=O)NC1CCCC1", "Measured On": "Bromodomain-containing protein 3 (Homo sapiens, UniProt Q15059)", "pIC50": 6.70}
{"Substance Smiles": "COc1ccc(-c2ccnn2C)cc1S(=O)(=O)NC1CCCC1", "Measured On": "Bromodomain-containing protein 3 (Homo sapiens, UniProt Q15059)", "pIC50": 5.77}

Lookup: Supply recorded pIC50 for COc1ccc(-c2cnn(C)n2)cc1S(=O)(=O)NC1CCCC1 here.
Found: 5.00
